Assay: reversal of MRP1-mediated doxorubicin resistance, pilot screen, H69AR cells, doxorubicin co-treatment (AID 601)
Conditions: H69AR cells, CellTiter-Glo, 72 h; compound alone cytotoxicity; at 10 µM
Binary label based on viability with cut-off 90%: below gives rule met, not below gives rule not met.

**Query** Does the reported viability of Cc1nn(-c2ccccc2)c2c1C(O)n1c(nc3ccccc31)S2 (centres undefined) stay below 90%?
**Result** rule met

**Query** // repeat for CCOc1nc(OCC)nc(N2CCC(C)CC2)n1 and report
**Result** rule met

**Query** And what about the compound CCN(CC(=O)Nc1ccc2c(c1)CCC2)Cc1nc2ccccc2c(=O)[nH]1 ?
**Result** rule met

**Query** Then this compound: CN1CCCC(OC(=O)c2ccc3c(c2)OCCO3)C1 (centres undefined)
**Result** rule not met

**Query** Consider next the compound Cc1cc(=O)[nH]c(S/C=C/c2ccccc2)n1 in the same way.
**Result** rule met

**Query** // same read-out, input: Cc1cc(C)c2c(n1)nn1c(N3CCN(c4ccccc4C)CC3)cc(C)nc21
**Result** rule met

**Query** Okay, and N=c1ncn(CC(O)CN2CCOCC2)c2nc(N3CCOCC3)[nH]c12 (centres undefined) ?
**Result** rule not met

**Query** What do we get for COc1ccccc1Cn1c(-c2ccco2)nc2nc3ccccc3nc21 ?
**Result** rule met

**Query** Same thing, different compound: Cc1nc2cc(C(=O)O)ccc2n1-c1ccc(F)cc1F
**Result** rule not met

**Query** One more compound: Cn1c(=O)c(=O)n(C)c2cc(S(=O)(=O)N3CCCCC3)ccc21
**Result** rule not met

**Query** Same again, this time with O=C(CSCc1n[nH]c(=O)[nH]1)NCCOc1cccc(Oc2ccccc2)c1
**Result** rule not met

**Query** Continue with CN(CC(O)COCc1cccs1)C1CCCCC1 (centres undefined)
**Result** rule not met

**Query** # repeat for O=C(Cn1[nH]c(=O)c2ccccc2c1=O)OCC(=O)N1CCCc2ccccc21
**Result** rule not met

**Query** Then this compound: N/C(Cn1nnc(-c2ccccc2)n1)=N\O
**Result** rule not met

**Query** What do you have for CCOCCn1c(CN2CCN(c3cccc(Cl)c3)CC2)nc2c1c(=O)n(C)c(=O)n2C ?
**Result** rule met

These data points were gathered from PubChem BioAssay.
